- target-or-test-system: TrkA receptor (Homo sapiens)
- experimental-protocol: DiscoverX PathHunter TrkA functional assay (NGF-stimulated U2OS cells)
- experimental-conditions: U2OS cells expressing TrkA-Prolink fusion and Shc1-EA; compound 1 hour, then EC80 NGF 3 hours; luminescence
Let's look at some compounds and their measured pIC50.
Reminder that pIC50 is minus the log10 of a molar concentration.

Previously resolved entries follow.
item-smiles: Cc1cnc(-c2ccccc2)c(NC(=O)NC2c3ccccc3-c3ccccc32)c1
pIC50: 6.92
--
item-smiles: O=C(Nc1cccnc1-c1ccco1)NC1c2ccccc2-c2ccccc21
pIC50: 5.55
--
item-smiles: O=C(Nc1cccc(-n2cnnn2)c1)NC1c2ccccc2-c2ccccc21
pIC50: 5.89
--
item-smiles: O=C(Nc1cc(C2CC2)nn1-c1ccccc1)NC1c2ccccc2-c2ccccc21
pIC50: 7.16
--
item-smiles: CN1CCN(Cc2ccccc2NC(=O)NC2c3ccccc3-c3ccccc32)CC1
pIC50: 5.52
--
item-smiles: Cc1cnc(-c2cccc(NC(=O)NC3c4ccccc4-c4ccccc43)c2)o1
pIC50: 5.89
--
item-smiles: CC(C)Cc1cc(NC(=O)NC2c3ccccc3-c3ccccc32)n(-c2ccccc2)n1
pIC50: 6.70

Let's switch to this compound now.
Sample O=C(Nc1cc(-c2ccccc2)nn1-c1ccccc1)NC1c2ccccc2-c2ccccc21 — what was its pIC50?
5.52

----------
- target-or-test-system: TrkA receptor (Homo sapiens)
- experimental-protocol: DiscoverX PathHunter TrkA functional assay (NGF-stimulated U2OS cells)
- experimental-conditions: U2OS cells expressing TrkA-Prolink fusion and Shc1-EA; compound 1 hour, then EC80 NGF 3 hours; luminescence
Let's look at some compounds and their measured pIC50.
Reminder that pIC50 is minus the log10 of a molar concentration.

Previously resolved entries follow.
compound: O=C(Nc1cncnc1-c1ccccc1)NC1c2ccccc2-c2ccccc21 [Compound 30]
target-or-test-system: TrkA receptor (Homo sapiens)
pIC50: 6.77

compound: Cc1cc(NC(=O)NC2c3ccccc3-c3ccccc32)n(-c2ccc(F)cc2)n1 [Compound 41]
target-or-test-system: TrkA receptor (Homo sapiens)
pIC50: 7.08

compound: CC(C)(C)c1cc(NC(=O)NC2c3ccccc3-c3ccccc32)n(-c2ccc(F)cc2)n1 [Compound 20]
target-or-test-system: TrkA receptor (Homo sapiens)
pIC50: 6.72

Form field - read-out: pIC50; system: TrkA receptor (Homo sapiens); submitted item: Cn1ncnc1-c1cncc(NC(=O)NC2c3ccccc3-c3ccccc32)c1 [Compound 74]
6.00

Form field - read-out: pIC50; system: TrkA receptor (Homo sapiens); submitted item: CNc1ncccc1NC(=O)NC1c2ccccc2-c2ccccc21 [Compound 26]
6.28

----------
- target-or-test-system: TrkA receptor (Homo sapiens, UniProt P04629)
- Sequence (P04629 33-796): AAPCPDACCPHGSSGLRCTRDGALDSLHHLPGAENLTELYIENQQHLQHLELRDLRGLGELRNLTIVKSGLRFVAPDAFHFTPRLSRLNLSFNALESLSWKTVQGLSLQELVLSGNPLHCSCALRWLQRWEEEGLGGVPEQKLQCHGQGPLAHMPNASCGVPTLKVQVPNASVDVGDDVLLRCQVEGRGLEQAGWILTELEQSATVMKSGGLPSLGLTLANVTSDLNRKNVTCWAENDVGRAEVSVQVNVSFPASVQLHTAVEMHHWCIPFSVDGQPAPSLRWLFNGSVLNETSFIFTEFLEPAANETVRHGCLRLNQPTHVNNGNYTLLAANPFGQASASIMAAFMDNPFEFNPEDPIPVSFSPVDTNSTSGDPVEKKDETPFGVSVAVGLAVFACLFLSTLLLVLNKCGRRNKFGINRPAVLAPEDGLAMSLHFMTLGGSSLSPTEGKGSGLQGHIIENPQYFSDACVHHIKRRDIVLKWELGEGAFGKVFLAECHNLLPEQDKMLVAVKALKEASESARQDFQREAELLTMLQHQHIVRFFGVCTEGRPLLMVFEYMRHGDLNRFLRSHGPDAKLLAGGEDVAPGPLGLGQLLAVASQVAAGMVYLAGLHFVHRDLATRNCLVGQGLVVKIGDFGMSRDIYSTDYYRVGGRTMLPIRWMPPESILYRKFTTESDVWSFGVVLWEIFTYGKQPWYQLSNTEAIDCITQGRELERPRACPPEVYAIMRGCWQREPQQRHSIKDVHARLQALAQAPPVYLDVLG
- experimental-protocol: DiscoverX PathHunter TrkA functional assay (NGF-stimulated U2OS cells)
- experimental-conditions: U2OS cells expressing TrkA-Prolink fusion and Shc1-EA; compound 1 hour, then EC80 NGF 3 hours; luminescence
test-readout: pIC50
Reminder that pIC50 is minus the log10 of a molar concentration.

compound: CC(C)(C)c1cc(NC(=O)NC2c3ccccc3-c3ccccc32)n(-c2ccccc2)n1 [Compound 16]
pIC50: 7.16
//
compound: Cc1ccc(NC(=O)NC2c3ccccc3-c3ccccc32)c(-c2ccccc2)n1 [Compound 1]
pIC50: 7.16
//
compound: Cc1nccn1-c1cccc(NC(=O)NC2c3ccccc3-c3ccccc32)c1 [Compound 38]
pIC50: 5.52
//
compound: O=C(Nc1c(-c2ccccc2)nc2sccn12)NC1c2ccccc2-c2ccccc21 [Compound 6]
pIC50: 7.46

Sample Cc1ccccc1-n1nc(C(C)(C)C)cc1NC(=O)NC1c2ccccc2-c2ccccc21 [Compound 18] — what was its pIC50?
6.07

Sample O=C(Nc1cnccc1-c1ccccc1)NC1c2ccccc2-c2ccccc21 [Compound 12] — what was its pIC50?
6.55

Sample O=C(Nc1cccnc1-c1cccnc1)NC1c2ccccc2-c2ccccc21 [Compound 51] — what was its pIC50?
5.52

Sample Cc1nn(C)c(NC(=O)NC2c3ccccc3-c3ccccc32)c1-c1ccccc1 [Compound 10] — what was its pIC50?
6.68

----------
- target-or-test-system: TrkA receptor (Homo sapiens)
- experimental-protocol: DiscoverX PathHunter TrkA functional assay (NGF-stimulated U2OS cells)
- experimental-conditions: U2OS cells expressing TrkA-Prolink fusion and Shc1-EA; compound 1 hour, then EC80 NGF 3 hours; luminescence
Let's look at some compounds and their measured IC50.
Your answer is read as nM, so omit the unit and give the number.

Previously resolved entries follow.
compound: O=C(Nc1c(-c2ccccc2)nc2ccccn12)NC1c2ccccc2-c2ccccc21 [Compound 21]
value-measured: 28
--
compound: Cc1nnc(-c2cccc(NC(=O)NC3c4ccccc4-c4ccccc43)c2)[nH]1 [Compound 37]
value-measured: 2300
--
compound: O=C(Nc1cc(F)cnc1-c1ccccc1)NC1c2ccccc2-c2ccccc21 [Compound 84]
value-measured: 47

Form field - read-out: IC50; system: TrkA receptor (Homo sapiens); submitted item: O=C(Nc1cccc(-c2nnco2)c1)NC1c2ccccc2-c2ccccc21 [Compound 49]
2800

----------
- target-or-test-system: TrkA receptor (Homo sapiens)
- experimental-protocol: DiscoverX PathHunter TrkA functional assay (NGF-stimulated U2OS cells)
- experimental-conditions: U2OS cells expressing TrkA-Prolink fusion and Shc1-EA; compound 1 hour, then EC80 NGF 3 hours; luminescence
Lab note - cut at 400 nM for IC50: Criterion met if strictly below, Criterion not met if not.

Solved cases (4 shown):
item-smiles: Cc1nnc(-c2cccc(NC(=O)NC3c4ccccc4-c4ccccc43)c2)n1C
discrete-label: Criterion met
--
item-smiles: O=C(Nc1cccc(-n2cnnc2)c1)NC1c2ccccc2-c2ccccc21
discrete-label: Criterion not met
--
item-smiles: O=C(Nc1cccc(-c2nnc3n2CCC3)c1)NC1c2ccccc2-c2ccccc21
discrete-label: Criterion met
--
item-smiles: Cc1nc(-c2ccccc2)c(NC(=O)NC2c3ccccc3-c3ccccc32)[nH]1
discrete-label: Criterion not met

Below 400 nM on IC50? Entry O=C(Nc1c(-c2ccco2)nc2ccccn12)NC1c2ccccc2-c2ccccc21
Criterion not met

Below 400 nM on IC50? Entry Cc1nc(-c2ccccc2)c(NC(=O)NC2c3ccccc3-c3ccccc32)n1C
Criterion met

----------
- target-or-test-system: TrkA receptor (Homo sapiens, UniProt P04629)
- experimental-protocol: DiscoverX PathHunter TrkA functional assay (NGF-stimulated U2OS cells)
- experimental-conditions: U2OS cells expressing TrkA-Prolink fusion and Shc1-EA; compound 1 hour, then EC80 NGF 3 hours; luminescence
test-readout: log10 IC50 (log10 of the value in nM)
Annotation: log10 of IC50, nM basis.

Previously resolved entries follow.
molecule: O=C(Nc1c2cnc3ccccc3c2nn1-c1ccccc1)NC1c2ccccc2-c2ccccc21 [Compound 25]
target-or-test-system: TrkA receptor (Homo sapiens, UniProt P04629)
log10 IC50: 3.15
--
molecule: O=C(Nc1ccnc(-c2ccccc2)c1)NC1c2ccccc2-c2ccccc21 [Compound 80]
target-or-test-system: TrkA receptor (Homo sapiens, UniProt P04629)
log10 IC50: 2.83
--
molecule: Cn1nnnc1-c1cccc(NC(=O)NC2c3ccccc3-c3ccccc32)c1 [Compound 64]
target-or-test-system: TrkA receptor (Homo sapiens, UniProt P04629)
log10 IC50: 2.52

Sample Cc1cc(NC(=O)NC2c3ccccc3-c3ccccc32)n(-c2ccccn2)n1 [Compound 39] — what was its log10 IC50?
3.48

Sample O=C(Nc1cccnc1-c1cccc(F)c1)NC1c2ccccc2-c2ccccc21 [Compound 75] — what was its log10 IC50?
2.28

Sample Cc1onc(-c2ccccc2)c1NC(=O)NC1c2ccccc2-c2ccccc21 [Compound 8] — what was its log10 IC50?
2.28

Sample Cn1cnnc1-c1cccc(NC(=O)NC2c3ccccc3-c3ccccc32)c1 [Compound 42] — what was its log10 IC50?
2.04

Sample Cc1nnnn1-c1cccc(NC(=O)NC2c3ccccc3-c3ccccc32)c1 [Compound 33] — what was its log10 IC50?
3.23

Sample Cc1ccc(NC(=O)NC2c3ccccc3-c3ccccc32)c(-c2ccc(F)cc2)n1 [Compound 5] — what was its log10 IC50?
2.36

Sample O=C(Nc1cccc(-c2nnc[nH]2)c1)NC1c2ccccc2-c2ccccc21 [Compound 48] — what was its log10 IC50?
2.56

Sample CCn1cnnc1-c1cccc(NC(=O)NC2c3ccccc3-c3ccccc32)c1 [Compound 44] — what was its log10 IC50?
2.61

Sample O=C(Nc1cccc(-c2nc(C3CC3)n[nH]2)c1)NC1c2ccccc2-c2ccccc21 [Compound 45] — what was its log10 IC50?
3.15

Sample O=C(Nc1cccnc1-c1ccccc1F)NC1c2ccccc2-c2ccccc21 [Compound 76] — what was its log10 IC50?
2.51

----------
- target-or-test-system: TrkA receptor (Homo sapiens)
- experimental-protocol: DiscoverX PathHunter TrkA functional assay (NGF-stimulated U2OS cells)
- experimental-conditions: U2OS cells expressing TrkA-Prolink fusion and Shc1-EA; compound 1 hour, then EC80 NGF 3 hours; luminescence
Let's look at some compounds and their measured IC50.
Your answer is read as nM, so omit the unit and give the number.

Previously resolved entries follow.
item-smiles: Cn1cnc(-c2ccccc2)c1NC(=O)NC1c2ccccc2-c2ccccc21
IC50 / nM: 310

item-smiles: Cn1ncc(-c2ccccc2)c1NC(=O)NC1c2ccccc2-c2ccccc21
IC50 / nM: 530

item-smiles: O=C(Nc1cccnc1)NC1c2ccccc2-c2ccccc21
IC50 / nM: 3500

item-smiles: CCc1nnc(-c2cccc(NC(=O)NC3c4ccccc4-c4ccccc43)c2)o1
IC50 / nM: 560

item-smiles: O=C(Nc1cccnc1-c1ccccc1)NC1c2ccccc2-c2ccccc21
IC50 / nM: 27

Let's switch to this compound now.
Form field - read-out: IC50; system: TrkA receptor (Homo sapiens); submitted item: Cn1ccnc1-c1cncc(NC(=O)NC2c3ccccc3-c3ccccc32)c1
260
